Source listed as the nanobody polyreactivity screen of Harvey et al. (2022).

Assay: yeast display, Sf9 membrane polyspecificity reagent, FACS + sequencing; frameworks hold sequencing errors

SEQ STRING	polyreactivity (PSR sort gate)
QVQLVESGGGLVQAGGSLRLSCAASGITFSSYTMGWYRQARGKERELVAAISRTGGSTYYADSVKGRFTISRDNAKNTVYLQMNSLIPEDTAVYYCAARVAGRTLSGGDYWGQGTQVTVSS	high polyreactivity
QVQLVESGGGLVQAGGSLRLSCAASGRTFGTYAMGWYRQAPGKERELVAAIRSNAGSTYYADSVKGRFTISRDNAKNTVYLQMNSLKPEDTAVYYCAKSYRSSRRYNYWGQGTQVTVSS	high polyreactivity

====

Experiment: yeast display, Sf9 membrane polyspecificity reagent, FACS + sequencing; frameworks hold sequencing errors

SEQ STRING	polyreactivity (PSR sort gate)
QVQLVESGGGLVQAGASLRLSCAASGRTFYNYAMGWYRQARGKEREFVASMTTSGGSTYYADSVKGRFTISRDNAKNTVYLQMNSLKPEDTAVYYCARRAYRSWTGNSYEYYYWGQGTQVTVSS	high polyreactivity
QVQLVESGGGLVQAGGSLRLSCAASGRIDAYTMGWYRQAPGKERELVAAISTSTSNTYYADSVKGRFTISRDNAKNTVYLQMNSLKPEDTAVYYCDEAYYSPWWGYYWGQGTQVTVSS	low polyreactivity
QVQLVESGGGLVQAGGSLRLSCAASGSTFAYYTMGWYRQAPGKERELVAAISSRGGSTYYADSVKGRFTISRDNAKNTVYLQMNSLKPEDTAVYYCAKSPRVAHYTSAYDYWGQGTQVTVSS	high polyreactivity
QVQLVESGGGLVQAGGSLRLSCAASGITFPYYAMGWDRQAPGKERELVAAISSSGGSTYYADSVKGRFTISRDNAKNTVYLQMNSLKPEDTAVYYCAAQRYINYDYWGQGTQVTVSS	high polyreactivity
QVQHVESGGCLVQAGGSLRLSCAASGYTFRYYAMGWYRQAPGKERELVAAINWSGCSTYYADSVKGRFTISRDNAKNTVYLHMNSLKPEDTAVYYCAADPDGDVDIDYDYWGQGTQVTVSS	low polyreactivity
QVQHVESGGGIVQAGGSLRLSCAASGLTITAYVMGWYRQAPGKERELVAAIRNSGGSTYYADSVKGRFTISRDNAKNTVYLQMISLKPEDTAVYYCAKQTSYWSRGYDYWGQGTQVTVSS	low polyreactivity
QVQLVESGGGLVQAGGSLRLSCAASGSTLVIYAMGWSRQAPGKEREFVAAIRWSTGRTYYADSVKGRFTISRDNAKNTVYLQMNSLKPEDTAVYYCNASYWAPNSLPDGFRYDSWGQGTQVTVSS	high polyreactivity
QVQLVESGGGLVQAGGSLRLSCAASGRTFVNNAMGWYRQAPGKERELVAAITRSGGRTYYADSVKGRFTISRDNAKNTVYLQMNSLKPVDTAVYYCATANVRLRHDDYWGQGTQVTVSS	high polyreactivity
QVQLVESGGGLVQAGGSLRLSCAASGRIFTWSTMGWYRQAAGTERELVAAINRGGSTTYADSVKGRFTISRDNAKNTVYLQMNSLKPEDTAVYYCAAYRSTSRVYSNWRGYDYWGQGTQVTVSS	high polyreactivity
QVQLVESGGVLVQAAGSLRLSCAASGSIFDVNAMGWNRQAPGKEREFVAAISDSGGSTYYADSVKGRFTISRDNGKNTVYLQMNSLKPEDTAVYYCNADWSWYNYYDFDYWGQGTQVTVSS	low polyreactivity
QVQLVESGGGLVQAGGSLRLSCAASGSIYRYAMGWYRQAPGKERELVASISRRGGSTYYADSVKGRFTISRDNAKNTVYLQMNSLKPEDTAVYSCNAYGYSFGYDYWGQGTQVTVSS	high polyreactivity
